A compilation of published pIC50 results with Prothrombin (Homo sapiens, UniProt P00734).
Give bare numbers, as −log10 of the molar value.

Completed entries (count: 4):
molecule | pIC50
N=C(N)c1cc2ccc(OC(=O)c3ccccc3)cc2s1 | 7.41
CCn1c(CC[C@@H]2CCCN2C(=O)[C@H](NCC(=O)O)c2ccccc2)cc2ccc(C(=N)N)cc21 | 8.10
CC1(C)[C@@H]2CC3OB([C@H](CCCNC(=N)N)NC(=O)CNC(=O)[C@@H](N)CCC(=O)O)O[C@@]3(C)[C@H]1C2 (some centres unmarked) | 5.49
CCn1c(CC[C@@H]2CCCN2C(=O)[C@H]2CCCN2C(=O)C(C)CN)cc2ccc(C(=N)N)cc21 (some centres unmarked) | 7.54

Proceed to the following item.
Quick check: pIC50 of O=C(NCc1ccccc1F)[C@@H]1CCc2cnc(NCC(F)(F)c3ccc4ccccc4[n+]3[O-])c(=O)n21 ?
8.08

###

A compilation of published IC50 results with Prothrombin (Homo sapiens, UniProt P00734).

Completed entries (count: 8):
compound | measured_endpoint | meas_value
N=C(N)c1ccc(-c2ccccc2Cn2c(=O)ccc3cc(OC4CCNCC4)ccc32)cc1 | IC50 | 1.7 µM
N=C(N)c1ccc2ccc(Cn3c(=O)ccc4cc(OC5CCN(c6ncccn6)CC5)ccc43)cc2c1 | IC50 | 75 µM
CC(C)(C)C(=O)n1nc(-c2cc[nH]c(=O)c2)cc1NCc1ccc(Cl)s1 | IC50 | < 0.1 µM
Clc1ccc(CNc2nc(C3CCOCC3)n[nH]2)s1 | IC50 | ≥ 100 µM
O=C(NCc1ccccc1OCc1ccccn1)[C@@H]1CCc2cnc(NCCc3ccccn3)c(=O)n21 | IC50 | 0.136 µM
CC1(C(=O)n2nc(C3(C)CCCNC3)cc2NCc2ccc(Cl)s2)CCOCC1 (centres unmarked) | IC50 | 1 to 10 µM
CCNC(=O)COc1ccccc1CNC(=O)[C@@H]1CCc2cnc(NCCc3ccccc3)c(=O)n21 | IC50 | 0.013 µM
O=C(c1ccoc1)n1nc(C2CCN(Cc3ccccc3)C2)cc1NCc1ccc(Cl)s1 (centres unmarked) | IC50 | 1 to 10 µM

Parameter requested: IC50. Apply to each item below.
1. N=C(N)c1ccc2cc(OC(=O)c3ccc(NC4=NC5CCCCC5N4)cc3)ccc2c1 (centres unmarked)
2. CCn1c(CC[C@@H]2CCCN2C(=O)[C@H]2CCCN2C(CCO)C(N)=O)cc2ccc(C(=N)N)cc21 (some centres unmarked)
3. CCC(C)[C@@H](N)C(=O)N[C@@H](Cc1cccc(C(F)(F)F)c1)C(=O)NCc1ccc(N)nc1 (some centres unmarked)
4. C=CCOC(=O)N1CCN(C(=O)CN2CCOCC2)CC1c1cc(NCc2ccc(Cl)s2)n(C(=O)c2cscn2)n1 (centres unmarked)

["2 µM", "0.0167 µM", "> 10 µM", "0.1 to 1 µM"]

Parameter requested: IC50. Apply to each item below.
1. COc1ccccc1C(=O)n1nc(C2(C)CCN(C(=O)OC(C)(C)C)CC2)cc1NCc1ccc(Cl)s1
2. COc1ccc(S(=O)(=O)Nc2ccc3c(c2)OCC(=O)N3Cc2ccc3ccc(C(=N)N)cc3c2)cc1
3. CC(=N)N1CCC(Oc2ccc3c(c2)/C(=C/c2ccc(Cl)cc2)C(=O)N3Cc2ccc3ccc(C(=N)N)cc3c2)CC1
4. CC(=N)N1CCC(Oc2ccc3c(ccc(=O)n3Cc3cccc(-c4ccc(C(=N)N)cc4)c3)c2)CC1
5. COc1ccccc1C(=O)n1nc(-c2ccccn2)c(F)c1NCc1ccc(Cl)s1
6. NCC#CCC(NC(=O)C1CCCN1C(=O)C(CC1CCCCC1)NCC(=O)O)C(=O)C(=O)N1CCC1 (centres unmarked)
7. Cc1ncc(CNC(=O)c2ccc(-c3ccccc3S(N)(=O)=O)cc2)c(CO)c1O

1: < 0.1 µM; 2: 34.9 µM; 3: 16.1 µM; 4: 30.4 µM; 5: < 0.1 µM; 6: 0.7 µM; 7: > 1000 µM

Parameter requested: IC50. Apply to each item below.
1. CC1(C(=O)n2nc(-c3ccccc3)c(F)c2NCc2ccc(Cl)s2)COC1
2. O=C(N1CCOCC1)N1C2CCC1CC(c1cc(NCc3ccc(Cl)s3)[nH]n1)C2 (centres unmarked)
3. CCOC(=O)[C@H](C)NC(=O)CN1CCC[C@@H]1C(=O)N1CCC[C@H]1CCc1cc2ccc(C(=N)N)cc2n1CC
4. COc1ccccc1C(=O)n1nc(C2CN(S(=O)(=O)N3CCCCC3)C2)nc1NCc1ccc(Cl)s1
5. CCn1c(CC[C@@H]2CCCN2C(=O)[C@H]2CCCN2C(=O)C2CCCNC2)cc2ccc(C(=N)N)cc21 (some centres unmarked)
6. COc1ccccc1C(=O)n1nc(C2CN(S(C)(=O)=O)C2)nc1NCc1ccc(Cl)s1

1: > 1 µM; 2: > 100 µM; 3: 0.0317 µM; 4: ≤ 0.1 µM; 5: 0.0316 µM; 6: ≤ 0.1 µM

###

A compilation of published pIC50 results with Prothrombin (Homo sapiens, UniProt P00734).
pIC50: −log10 of the molar value.

Completed entries (count: 3):
molecule | pIC50
CC(C)Nc1ccc(-c2cc(N)cc(C(=O)O)c2)c(CC(=O)NCc2ccc(C(=N)N)cc2)[n+]1[O-] | < 4.00
CCSCCNC(=O)C1CN(S(=O)(=O)c2ccc3cc(Br)ccc3c2)CCN1C(=O)C1CCN(c2ccncc2)CC1 (centres unmarked) | < 5.30
C=Cc1ccc(-c2ccc(C(=O)NCC(C)C)cc2C(=O)O)c(C(=O)Nc2ccc(C(=N)N)cc2)c1 | < 6.00

Parameter requested: pIC50. Apply to each item below.
1. COCCn1ccc(-c2cc(NCc3ccc(Cl)s3)n(C(=O)c3ccoc3)n2)cc1=O
2. O=C(c1cccc2c1OCCO2)n1nc(C2CNC2)cc1NCc1ccc(Cl)s1
3. COc1ccccc1C(=O)n1nc(C2CCN(C(=O)OC(C)(C)C)CC2)nc1NCc1ccc(Cl)s1
4. Clc1ccc(CNc2nc(C3CCOC3)n[nH]2)s1 (centres unmarked)
5. COC(C)(C)C(=O)n1nc(C2CCNCC2)c(F)c1NCc1ccc(Cl)s1
6. C=CCOC(=O)N1CC(c2cc(NCc3ccc(Cl)s3)n(C(=O)C(C)(C)C)n2)C1
7. NCCCCNC(=O)Cn1c(=O)c(NS(=O)(=O)Cc2ccccc2)cc2ccccc21

1: > 7.00; 2: 5.00 to 6.00; 3: ≥ 7.00; 4: ≤ 4.00; 5: > 7.00; 6: > 7.00; 7: < 4.52

Parameter requested: pIC50. Apply to each item below.
1. CS(=O)(=O)N1CC(c2cc(NCc3ccc(Cl)s3)[nH]n2)C1
2. CN1CCC[C@@H]1C(=O)N[C@@H](Cc1ccc(Cl)c(Cl)c1)C(=O)NCc1ccc(N)nc1
3. COc1ccccc1C(=O)N(Cc1ccc(Cl)s1)c1[nH]nc(-c2ccc3c(c2)CCCC3=O)c1F
4. Cc1ncc(CNc2ccc(-c3ccccc3S(N)(=O)=O)cc2)c(CO)c1O
5. CCn1c(CC[C@@H]2CCCN2C(=O)[C@H](NCC(N)=O)c2ccccc2)cc2ccc(C(=N)N)cc21

1: < 4.00; 2: < 5.00; 3: < 6.00; 4: < 3.00; 5: 8.16

Parameter requested: pIC50. Apply to each item below.
1. CC(C)c1ccc(CCNS(=O)(=O)c2cc(C(=N)N)ccc2O)c(NCC(=O)O)c1
2. Cn1c(=O)n(Cc2ccc3ccc(C(=N)N)cc3c2)c2cc(OC3CCN(C(=N)N)CC3)ccc21
3. COCCOCC(C)(C)C(=O)n1nc(-c2ccccc2)c(F)c1NCc1ccc(Cl)s1
4. COc1ccccc1C(=O)n1nc(C2CCCO2)nc1NCc1ccc(Cl)s1 (centres unmarked)
5. N=C(N)NC(=O)CCC(NC(=O)[C@@H]1CCCN1C(=O)[C@@H](CC1CCCCC1)NCC(=O)O)C(=O)c1nccs1 (some centres unmarked)
6. N=C(N)NCCC[C@H](NC(=O)[C@@H]1CC[C@H]2CN(C(=O)CCc3ccccc3)CC(=O)N21)C(=O)c1nccs1
7. CCn1c(CC[C@@H]2CCCN2C(=O)CC2CCCC2)cc2ccc(C(=N)N)cc21
8. CC(C)(C)C(=O)n1nc(C2(C)CCCNC2=O)cc1NCc1ccc(Cl)s1 (centres unmarked)

< 4.00
4.61
> 7.00
≥ 7.00
7.47
8.30
8.00
6.00 to 7.00

###

pIC50: −log10 of the molar value.
A compilation of published pIC50 results with UniProt:P00734.

molecule | pIC50
COCc1nn(Cc2ccc(Cn3cc(F)ccc3=O)cc2)cc1C(=O)NCc1nccc(OC)c1F | < 4.40
C=CCOC(=O)N1CCN(S(C)(=O)=O)CC1c1cc(NCc2ccc(Cl)s2)n(C(=O)C(C)(C)C)n1 (stereo not drawn) | < 4.00
CN1CCC[C@@H]1C(=O)N[C@@H](Cc1ccc(F)c(F)c1)C(=O)NCc1ccc(N)nc1 | < 5.00
Cc1cc(C)c(C(=O)N[C@@H](Cc2cccc(C(F)(F)F)c2)C(=O)NCc2ccc(N)nc2)[nH]1 | < 5.00
CC(C)(C)OC(=O)N1CCCC(C)(c2cc(NCc3ccc(Cl)s3)n(C(=O)C(C)(C)CO)n2)C1 (stereo not drawn) | > 7.00

Parameter requested: pIC50. Apply to each item below.
1. CC(C)(C)C(=O)n1nc(-c2ccc(N3CCOCC3=O)cc2)c(F)c1NCc1ccc(Cl)s1
2. O=C(N1CCOCC1)N1CCC(c2cc(NCc3ccc(Cl)s3)[nH]n2)C1 (stereo not drawn)
3. CC(C)(C)OC(=O)N1CCCC1(C)c1cc(NCc2ccc(Cl)s2)n(C(=O)C2(C)CCOCC2)n1 (stereo not drawn)
4. O=S(=O)(c1ccccc1)N1CCC(c2cc(NCc3ccc(Cl)s3)[nH]n2)CC1
5. O=C(c1cccc2c1OCCO2)n1nc(-c2ccccc2)c(F)c1NCc1ccc(Cl)s1
6. FC(F)(F)c1cccc(CN2CCC(c3cc(NCc4ccc(Cl)s4)[nH]n3)CC2)n1
7. C=CCOC(=O)N1CCC(c2cc(NCc3ccc(Cl)s3)[nH]n2)CC1
8. COC(=O)c1ccc(Br)cc1-n1cc(C(=N)N)c2ccccc21

1: > 7.00; 2: < 4.00; 3: 5.00 to 6.00; 4: 5.00 to 6.00; 5: > 7.00; 6: < 4.00; 7: < 4.00; 8: 4.22

Parameter requested: pIC50. Apply to each item below.
1. N=C(N)c1cc(F)c(CNC(=O)[C@@H]2CCN2C(=O)[C@H](O)c2cc(Cl)cc(OC(F)F)c2)cc1F
2. N=C(N)c1ccc(-c2ccc(Cn3c(=O)ccc4cc(OC5CCNCC5)ccc43)cc2)cc1
3. Nc1ccc(CCNC(=O)Cn2c(=O)c(NS(=O)(=O)Cc3ccccc3)cc3ccccc32)cc1
4. CC(C)(C)OC(=O)N1CCC(c2cc(NCc3ccc(Cl)s3)[nH]n2)CC1
5. Cc1cc(C)c(C(=O)N[C@@H](Cc2ccc(Cl)c(Cl)c2)C(=O)NCc2ccc(N)nc2)[nH]1
6. N=C(N)NCCC[C@H](NC(=O)Cn1c(CCc2ccccc2)ccc(NS(=O)(=O)Cc2ccccc2)c1=O)C(=O)c1nccs1

> 6.82
5.04
< 4.52
< 4.00
< 5.00
6.70

Parameter requested: pIC50. Apply to each item below.
1. CCOC(=O)Cn1c(CC[C@@H]2CCCN2C(=O)[C@H]2CCCN2C(C)=O)cc2ccc(C(=N)N)cc21
2. CC(=N)N1CCC(Oc2ccc3c(c2)N(Cc2cccc(-c4cccc(C(=N)N)c4)c2)C(=O)CO3)CC1

1: 7.94; 2: 5.27
